target: Jak2 (UniProt O60674); assay: phosphorylation enrichment, bacterial display (enrichment ratio); higher = better substrate or ligand; peptides without Tyr show the background;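 further: 11-residue human phosphosite peptides and single-mutation variants displayed on the E. coli surface, counted by deep sequencing, each peptide's frequency after selection divided by its frequency in the unselected input library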;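 further: frequency after pTyr selection over input frequency; kinase dosed for 20-30% of maximal phosphorylation in three min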
Sequence (O60674 whole entry, looked up): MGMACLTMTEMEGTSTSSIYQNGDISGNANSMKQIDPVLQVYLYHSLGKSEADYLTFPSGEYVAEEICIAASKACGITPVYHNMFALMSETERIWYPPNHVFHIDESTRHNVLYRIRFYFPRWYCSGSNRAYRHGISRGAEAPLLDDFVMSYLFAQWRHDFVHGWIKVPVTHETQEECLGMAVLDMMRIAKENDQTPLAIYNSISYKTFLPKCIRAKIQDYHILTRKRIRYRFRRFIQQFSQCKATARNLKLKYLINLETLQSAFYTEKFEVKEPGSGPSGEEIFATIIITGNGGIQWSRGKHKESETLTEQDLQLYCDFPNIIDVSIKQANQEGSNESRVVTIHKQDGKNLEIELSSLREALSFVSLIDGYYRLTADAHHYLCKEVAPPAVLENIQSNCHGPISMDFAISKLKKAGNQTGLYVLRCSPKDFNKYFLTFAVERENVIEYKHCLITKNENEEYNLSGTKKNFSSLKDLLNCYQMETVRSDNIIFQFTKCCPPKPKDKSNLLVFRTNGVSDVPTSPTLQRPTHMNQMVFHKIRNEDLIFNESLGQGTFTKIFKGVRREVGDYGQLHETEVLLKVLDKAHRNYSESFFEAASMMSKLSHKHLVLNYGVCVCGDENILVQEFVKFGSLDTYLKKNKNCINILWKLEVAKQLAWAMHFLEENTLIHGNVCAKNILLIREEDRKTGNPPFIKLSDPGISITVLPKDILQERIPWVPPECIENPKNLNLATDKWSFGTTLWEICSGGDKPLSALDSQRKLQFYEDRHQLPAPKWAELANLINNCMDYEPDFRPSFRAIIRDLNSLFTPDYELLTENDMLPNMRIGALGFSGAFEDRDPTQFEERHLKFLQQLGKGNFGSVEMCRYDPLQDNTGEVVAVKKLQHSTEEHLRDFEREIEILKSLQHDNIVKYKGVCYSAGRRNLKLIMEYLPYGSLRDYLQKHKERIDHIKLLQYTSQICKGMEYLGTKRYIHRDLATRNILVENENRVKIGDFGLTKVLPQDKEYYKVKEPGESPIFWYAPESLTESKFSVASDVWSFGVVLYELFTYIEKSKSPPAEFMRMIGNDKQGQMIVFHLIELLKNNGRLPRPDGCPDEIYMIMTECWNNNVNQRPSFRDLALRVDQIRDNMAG
Each record gets a class by phosphorylation enrichment: low: < 0.9; mid: ≥ 0.9 and < 1; high: ≥ 1

LLTALYFISRG [KCNH2_Y780]    high
ISRVLYPNDNF [PYGM_Y281]    low
VSSPKYGGDDE [TMCC2_Y473_S475G]    low

Hello team, could you let me know which band the following sequence falls into: FKEVVYQAMEE [TACC3_Y684_E680K] high

Which phosphorylation enrichment band matches VSFDEYRFRSV [CFTR_Y515_YF] ? high

Please report the category associated with AGLEDYDRLRP [RAC3_Y64_Q61L] , nothing else. mid

Bin? KGEPQYSSHSS [SIPA1L3_Y1265] low

Returns: class label. Input: GEDDVYDSVPG [FGR_opt_2018] mid

Form field 'band' for STFVPCEIKVQ [L1CAM_Y784_Y784C] high

Assign a category based on measured phosphorylation enrichment for LSSEMCVKSYT [F5_Y2149_Y2149C] and give only the class name. high

Hi there! Could you help me figure out the category for NDLMEYAKQHG [ASS1_Y163] please? low

Given GLPINYTTRRI [LAMA2_Y2894] , name the class its phosphorylation enrichment places it in. low

====

target: FGFR3 (UniProt P22607); assay: phosphorylation enrichment, bacterial display (enrichment ratio); higher = better substrate or ligand; peptides without Tyr show the background
Sequence (P22607 whole entry, looked up): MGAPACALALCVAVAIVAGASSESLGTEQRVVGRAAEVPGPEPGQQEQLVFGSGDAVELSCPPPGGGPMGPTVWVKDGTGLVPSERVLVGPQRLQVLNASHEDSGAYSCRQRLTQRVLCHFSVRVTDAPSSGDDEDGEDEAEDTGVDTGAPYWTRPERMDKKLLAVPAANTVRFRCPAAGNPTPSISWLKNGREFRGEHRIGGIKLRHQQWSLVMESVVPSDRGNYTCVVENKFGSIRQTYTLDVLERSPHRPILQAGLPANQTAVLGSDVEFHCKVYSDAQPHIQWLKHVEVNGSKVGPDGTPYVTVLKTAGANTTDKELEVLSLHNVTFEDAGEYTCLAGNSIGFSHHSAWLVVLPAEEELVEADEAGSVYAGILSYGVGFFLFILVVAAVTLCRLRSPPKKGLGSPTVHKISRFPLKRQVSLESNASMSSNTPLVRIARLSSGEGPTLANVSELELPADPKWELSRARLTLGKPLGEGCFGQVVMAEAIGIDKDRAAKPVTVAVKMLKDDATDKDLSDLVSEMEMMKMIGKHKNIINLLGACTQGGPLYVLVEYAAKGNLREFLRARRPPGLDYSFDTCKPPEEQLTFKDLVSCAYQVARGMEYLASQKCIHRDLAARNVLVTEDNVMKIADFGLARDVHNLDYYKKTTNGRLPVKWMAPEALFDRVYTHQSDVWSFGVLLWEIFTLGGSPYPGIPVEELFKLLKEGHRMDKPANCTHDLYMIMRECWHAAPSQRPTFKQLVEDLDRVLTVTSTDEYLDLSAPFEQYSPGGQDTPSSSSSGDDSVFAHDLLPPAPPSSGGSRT
Measured phosphorylation enrichment, listed per entry for reference.
API note: the answer field is a bare number with no unit suffix.

Please review the following examples before continuing.
LSPNMYNSKLW [TARSL2_Y457]    1.13
FSLIHYASIVD [MYH7_Y582_G584S]    1.01
SASRSYSRSRS [SRRM4_Y549]    0.497
SVVVPYELPEV [TP53_Y220_P222L]    0.723
TVSQPYSFIEF [SEC22B_Y110_R108Q]    8.47
DVLVEYQGEGR [GNS_Y416]    0.599

// Input: GTFVIYVRFGG [FLNB_Y1687_YF] . Output its phosphorylation enrichment only. 0.731

====

target: Fes (UniProt P07332); experiment: phosphorylation enrichment, bacterial display (enrichment ratio); higher = better substrate or ligand; peptides without Tyr show the background
Sequence (P07332 whole entry, looked up): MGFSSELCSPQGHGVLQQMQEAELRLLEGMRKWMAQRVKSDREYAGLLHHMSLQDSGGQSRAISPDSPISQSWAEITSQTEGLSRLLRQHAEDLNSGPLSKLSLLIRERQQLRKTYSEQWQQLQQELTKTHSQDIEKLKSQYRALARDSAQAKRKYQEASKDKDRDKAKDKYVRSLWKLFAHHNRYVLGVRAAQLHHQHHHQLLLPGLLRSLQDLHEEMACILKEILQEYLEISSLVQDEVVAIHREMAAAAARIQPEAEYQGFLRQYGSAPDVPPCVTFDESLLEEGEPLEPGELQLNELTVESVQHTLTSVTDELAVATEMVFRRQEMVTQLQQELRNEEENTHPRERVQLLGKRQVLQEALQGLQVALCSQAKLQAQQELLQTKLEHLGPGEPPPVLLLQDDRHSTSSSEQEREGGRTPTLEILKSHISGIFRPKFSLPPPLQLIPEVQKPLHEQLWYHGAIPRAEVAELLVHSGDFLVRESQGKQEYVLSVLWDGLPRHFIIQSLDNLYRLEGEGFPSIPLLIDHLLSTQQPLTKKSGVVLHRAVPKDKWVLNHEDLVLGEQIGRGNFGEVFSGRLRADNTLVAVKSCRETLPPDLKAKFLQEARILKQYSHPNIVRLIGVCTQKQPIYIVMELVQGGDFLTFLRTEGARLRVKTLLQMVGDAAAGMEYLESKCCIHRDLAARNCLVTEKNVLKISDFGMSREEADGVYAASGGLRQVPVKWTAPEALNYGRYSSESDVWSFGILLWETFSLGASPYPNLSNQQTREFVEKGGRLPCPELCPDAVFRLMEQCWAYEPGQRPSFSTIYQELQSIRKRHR
Each item that follows carries a reported phosphorylation enrichment.

DSIRDYEDGTE [CLNS1A_Y214_M218T]    1.58
NQILPYIEELV [PPP2R1B_Y341_K343E]    1.28
EYKDAYKFAAD [BRDT_Y335]    1.14
NPQKSCFIRLY [WAS_Y83_Y83C]    1.14

Give the measured phosphorylation enrichment for LGRTRYQDVTG [MIPEP_Y510_H512D] 0.735

For the sequence RLNWIYYKDQT [RS1_Y165] , give its measured phosphorylation enrichment value. 2.66

====

molecular target: Hck (UniProt P08631); assay: phosphorylation enrichment, bacterial display (enrichment ratio); higher = better substrate or ligand; peptides without Tyr show the background
Sequence (P08631 whole entry, looked up): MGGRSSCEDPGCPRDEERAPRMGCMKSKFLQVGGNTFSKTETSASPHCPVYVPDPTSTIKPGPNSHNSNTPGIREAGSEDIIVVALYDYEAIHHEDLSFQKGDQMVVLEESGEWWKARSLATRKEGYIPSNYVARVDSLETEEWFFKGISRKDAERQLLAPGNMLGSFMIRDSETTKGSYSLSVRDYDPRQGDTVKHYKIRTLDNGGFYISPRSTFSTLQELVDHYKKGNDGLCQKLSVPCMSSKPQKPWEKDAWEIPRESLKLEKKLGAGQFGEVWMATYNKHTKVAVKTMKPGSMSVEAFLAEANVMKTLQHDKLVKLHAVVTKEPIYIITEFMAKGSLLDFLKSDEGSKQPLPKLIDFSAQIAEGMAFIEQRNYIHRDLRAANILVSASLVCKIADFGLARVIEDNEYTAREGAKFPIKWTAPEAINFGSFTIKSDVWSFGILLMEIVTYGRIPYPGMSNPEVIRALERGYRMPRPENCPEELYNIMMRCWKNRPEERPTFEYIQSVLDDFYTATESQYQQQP
The sequences listed here are annotated with their phosphorylation enrichment.
Answer using only a numeral; do not append any unit.

Example cases with answers are listed next.
GMRHGYGVRQS [JPH2_Y141]    0.36
PSPMPYACCQM [FOXL2_Y215_S217C]    0.427
QVQQIYSDSDL [MIB1_Y376_R371Q]    3.84
LERYIYNREEL [HLA-DPB1_Y59_F64L]    1.55
DVLVEYQGEGR [GNS_Y416]    0.496
QRVLLYVQRET [GRHL3_Y518_R520Q]    0.509

Let me know recorded phosphorylation enrichment for PAGSGYPAYLG [ATP6V1A_Y374_D371G] , thanks. 0.645

Could you please provide reported phosphorylation enrichment for ISNATYKQIGL [FLT1_Y199_E201Q] ? Thanks! 0.349

State its phosphorylation enrichment: DAVKHYMQFQK [CNGA2_Y395_R399Q] 0.552
